Attribution: the supplement of paper PMC4466140

# testedTarget: SpHof1-2
# assayComment: SPOT peptide array binding signal intensity (averaged, normalized) (arbitrary units (background-subtracted, floor 0; scale differs between SH3 domains)); higher = stronger binding of the SH3 domain to the peptide
Answer Not fulfilled if SPOT peptide array binding signal intensity is under 30, and Fulfilled if it is 30 or more.

NPNRRAPRRPLSTQH : Not fulfilled
LYEAMPPTLPHRDWK : Not fulfilled
NRARYLPQNPDIIAG : Not fulfilled

Query :: Confirm if SPOT peptide array binding signal intensity reported for the binder `NMLSRPRLAKLPSIR` is 30 or above.
Result :: Fulfilled

Query :: Confirm if SPOT peptide array binding signal intensity reported for the binder `NLKKRPPTAPQRKIS` is 30 or above.
Result :: Not fulfilled

Query :: Confirm if SPOT peptide array binding signal intensity reported for the binder `ALFRLSFFFPLDPAY` is 30 or above.
Result :: Fulfilled

Query :: Confirm if SPOT peptide array binding signal intensity reported for the binder `RSVKRPRRAPRPVVS` is 30 or above.
Result :: Not fulfilled

Query :: Confirm if SPOT peptide array binding signal intensity reported for the binder `LYKRKPILLPDPKPL` is 30 or above.
Result :: Not fulfilled

Query :: Confirm if SPOT peptide array binding signal intensity reported for the binder `APKHAPPPVPNETDN` is 30 or above.
Result :: Not fulfilled

Query :: Confirm if SPOT peptide array binding signal intensity reported for the binder `KMSRSPPRPPSLKII` is 30 or above.
Result :: Not fulfilled

Query :: Confirm if SPOT peptide array binding signal intensity reported for the binder `QQNRPLPQLPNRNNR` is 30 or above.
Result :: Fulfilled

Query :: Confirm if SPOT peptide array binding signal intensity reported for the binder `VRVKKRPLIRPLNSS` is 30 or above.
Result :: Not fulfilled

Query :: Confirm if SPOT peptide array binding signal intensity reported for the binder `NTMKKRPAPPSLPSL` is 30 or above.
Result :: Fulfilled

Query :: Confirm if SPOT peptide array binding signal intensity reported for the binder `VPPPMQPPPIESSNL` is 30 or above.
Result :: Not fulfilled

Query :: Confirm if SPOT peptide array binding signal intensity reported for the binder `ILARAILTIPRVLDK` is 30 or above.
Result :: Not fulfilled

Query :: Confirm if SPOT peptide array binding signal intensity reported for the binder `RTIRKLPLMSLSEYF` is 30 or above.
Result :: Not fulfilled

Query :: Confirm if SPOT peptide array binding signal intensity reported for the binder `GRSRLFPHSPLGRSS` is 30 or above.
Result :: Not fulfilled
